This collection of values is drawn from patent US20120071475A1.

Molecular target: PI3Kδ (Homo sapiens)
Sequence (O00329 whole entry, species assumed): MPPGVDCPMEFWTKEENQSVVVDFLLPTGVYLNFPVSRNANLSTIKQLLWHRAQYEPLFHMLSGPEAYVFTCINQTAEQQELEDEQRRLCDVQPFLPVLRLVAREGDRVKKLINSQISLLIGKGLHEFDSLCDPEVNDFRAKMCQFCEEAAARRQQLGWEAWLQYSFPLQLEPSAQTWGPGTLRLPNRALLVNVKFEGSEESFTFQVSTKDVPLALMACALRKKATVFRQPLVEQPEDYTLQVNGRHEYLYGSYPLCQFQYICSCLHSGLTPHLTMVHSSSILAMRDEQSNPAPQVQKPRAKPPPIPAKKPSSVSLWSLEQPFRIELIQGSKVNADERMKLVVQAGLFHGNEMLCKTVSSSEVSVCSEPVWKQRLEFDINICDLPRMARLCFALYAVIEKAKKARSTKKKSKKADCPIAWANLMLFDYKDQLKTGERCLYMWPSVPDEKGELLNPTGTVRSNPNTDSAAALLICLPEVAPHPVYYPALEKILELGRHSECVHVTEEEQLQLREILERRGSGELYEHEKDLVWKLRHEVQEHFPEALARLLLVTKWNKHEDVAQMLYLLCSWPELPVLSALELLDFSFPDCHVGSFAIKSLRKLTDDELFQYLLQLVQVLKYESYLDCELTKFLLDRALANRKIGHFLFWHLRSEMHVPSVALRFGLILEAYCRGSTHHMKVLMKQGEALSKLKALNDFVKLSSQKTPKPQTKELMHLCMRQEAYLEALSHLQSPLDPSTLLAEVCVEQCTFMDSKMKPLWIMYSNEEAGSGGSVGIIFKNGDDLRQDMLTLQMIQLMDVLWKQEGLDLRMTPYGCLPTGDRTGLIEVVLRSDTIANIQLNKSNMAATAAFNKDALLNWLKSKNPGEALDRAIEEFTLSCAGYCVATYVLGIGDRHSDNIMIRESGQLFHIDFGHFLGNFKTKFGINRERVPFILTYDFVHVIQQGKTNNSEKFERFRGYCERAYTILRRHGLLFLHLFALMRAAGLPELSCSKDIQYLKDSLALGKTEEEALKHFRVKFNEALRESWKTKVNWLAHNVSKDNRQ
Sequence (P27986 whole entry partner, species assumed): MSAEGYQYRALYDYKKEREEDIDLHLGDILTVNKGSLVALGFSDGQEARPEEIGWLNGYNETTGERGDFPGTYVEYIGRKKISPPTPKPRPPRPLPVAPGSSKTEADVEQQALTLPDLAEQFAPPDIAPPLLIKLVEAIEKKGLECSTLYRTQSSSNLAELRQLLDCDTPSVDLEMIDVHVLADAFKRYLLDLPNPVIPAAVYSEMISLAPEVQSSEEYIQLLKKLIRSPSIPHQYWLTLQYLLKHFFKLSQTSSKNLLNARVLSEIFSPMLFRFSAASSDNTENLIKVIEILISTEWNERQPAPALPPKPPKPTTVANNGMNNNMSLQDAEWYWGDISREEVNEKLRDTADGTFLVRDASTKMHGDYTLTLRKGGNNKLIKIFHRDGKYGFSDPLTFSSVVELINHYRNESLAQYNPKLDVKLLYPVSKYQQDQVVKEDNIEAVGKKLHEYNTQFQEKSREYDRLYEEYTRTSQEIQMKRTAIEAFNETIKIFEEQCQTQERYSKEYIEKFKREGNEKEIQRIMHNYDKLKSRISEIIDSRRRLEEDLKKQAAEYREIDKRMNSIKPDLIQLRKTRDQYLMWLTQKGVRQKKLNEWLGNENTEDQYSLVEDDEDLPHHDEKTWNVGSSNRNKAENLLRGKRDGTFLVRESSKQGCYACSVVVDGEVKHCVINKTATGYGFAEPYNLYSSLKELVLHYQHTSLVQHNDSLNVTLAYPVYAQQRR
Experiment: PI3Kδ inhibitory activity (Ki value)
Type: biochemical
Conditions: read-out: PI3Kδ Ki value
Method: According to Example 2 above, after 80 μg/mL PI-3 kinase γ of the enzyme solution (80 μg/mL PI-3 kinase γ, 10 mmol/L MgCl2, 5 mmol/L DTT) was changed to 158 μg/mL PI-3 kinase δ, a method similar to the method for measuring PI3Kγ inhibitory activity was used to calculate an inhibition ratio, which was defined as the PI3Kδ inhibitory activity. According to Example 4 above, a Km value for PI3Kδ was determined to calculate a Ki value.
pKi: −log10 of the molar value.
Each entry below lists one item and its recorded pKi value.

>  <compound>
COc1cc(C2(F)CCc3nc(NC(=O)Nc4ccccc4C(=O)NC(C)C)sc3C2)nc(OC)n1 (centres unmarked) [Compound I-83]

>  <value.comparator>
<

>  <pKi>
4.92

$$$$
>  <compound>
CC(C)CCOc1ccccc1NC(=O)Nc1cc2n(n1)CCN2c1ccc2c(c1)CCN(C)C2=O [Compound I-112]

>  <value.comparator>
=

>  <pKi>
5.68

$$$$
>  <compound>
COc1cncc(-c2ccc3nc(NC(=O)Nc4ccccc4OCCC(C)C)cn3n2)c1 [Compound I-114]

>  <value.comparator>
=

>  <pKi>
5.70

$$$$
>  <compound>
Cc1nc(NC(=O)Nc2ccccc2C(=O)NC(C)C)sc1-c1ccc(S(C)(=O)=O)c(F)c1 [Compound I-127]

>  <value.comparator>
=

>  <pKi>
7.09

$$$$
>  <compound>
COc1cc(N2CCc3nc(NC(=O)Nc4ccccc4C(=O)NC(C)C)sc3C2)nc(OC)n1 [Compound I-12]

>  <value.comparator>
=

>  <pKi>
6.23

$$$$
